Data origin: PubChem BioAssay (NCI)

Reported growth values for a set of molecules
System: SF-539 CNS
experiment.summary: NCI-60 one-dose screen, 48 h (100 = growth as untreated, 0 = no growth, -100 = all killed)
cond: 10 µM unless noted
This is part of a sample that, as a whole, favours compounds with a hit. Of some 83,000 tested, about 20% had one in any assay. The source made the active and inactive calls. Rule for the calls: active = growth percent below 10; inactive = the rest.

- molecule: "CCCC(NC(=O)OCc1ccccc1)C(=O)O (stereo not given)"
  growth: "95.9% (inactive)"
- molecule: "CC(=O)Nc1ccc(C=Nc2ccc3ccccc3c2)cc1"
  growth: "107% (inactive)"
- molecule: "C=CCc1nc2ccccc2s1"
  growth: "119% (inactive)"
- molecule: "COC(=O)[C@H](CC(C)C)NC(=O)NC(=O)NC(=O)CI"
  growth: "77.2% (inactive)"
- molecule: "N#CC1C(=O)NC(c2ccccc2[N+](=O)[O-])c2sc3c(F)cccc3c21 (stereo not given)"
  growth: "85.7% (inactive)"
- molecule: "CC(C)CCNCC(C)(C)O"
  growth: "101% (inactive)"
- molecule: "CC(C)C1=NOC(=O)C1=Cc1cn(-c2ccccc2)nc1-c1ccc(Cl)cc1"
  growth: "75.9% (inactive)"
- molecule: "CCc1ccc(NC(=O)N[C@@H](Cc2cc(F)cc(F)c2)C(=O)N[C@@H]2C(=O)N3C[C@H](O)C[C@H]3C(=O)N3CCOC[C@H]3C(=O)N[C@@H](C)C(=O)N3C[C@H](C)C[C@H]3C(=O)O[C@H]2C)cc1"
  growth: "55.8% (inactive)"

# input Return value of growth for input `CCOC(=O)c1nc2c3ccccc3ccn2c1C(=O)OC` , no commentary.
# output 100% (inactive)

# input Return value of growth for input `COC(=O)c1c(C)[nH]c(/C=C2\N=C(c3ccc[nH]3)C=C2OC)c1C` , no commentary.
# output -59.7% (active)

----------
System: M14 melanoma
experiment.summary: NCI-60 one-dose screen, 48 h
cond: 10 µM unless noted
About 83,000 compounds went through this panel and 20% of them were active in at least one assay; those are over-represented in the sample as a whole. Active and inactive are the calls of the source. How the source made its calls: active means growth percent below 10; inactive means the rest.
Respond with a class label; see Y for active, N for inactive

Sample answers from the record:
- smiles.notation: "ClC1=C(Cl)C(Cl)=C(Cl)C1=Cc1ccccc1"
  category.label: "Y"
- smiles.notation: "COc1cc(/C=C/C(=O)/C=C/c2ccc(-n3ccnc3)cc2)ccc1O"
  category.label: "N"
- smiles.notation: "Cc1ccc(S(=O)(=O)Oc2ccc(Br)cc2Br)cc1"
  category.label: "N"

# input Fill in: this test's call for `CC1(C)CC[C@]2(C(N)=O)CC[C@]3(C)C(=CC[C@@H]4[C@@]5(C)C/C(=C/c6cccnc6)C(=O)C(C)(C)[C@@H]5CC[C@]43C)[C@@H]2C1` is ___
# output Y

# input Fill in: this test's call for `O=C(CSc1nc2ccc([N+](=O)[O-])cc2[nH]1)Nc1cccc(Cl)c1` is ___
# output N

# input Fill in: this test's call for `CCn1cc(-c2[nH]c(=S)ncc2-c2ccc(Cl)cc2)c(-c2ccc(Br)cc2)n1` is ___
# output N

----------
Tested on: NCI-H522 lung
experiment.summary: NCI-60 one-dose screen, 48 h
cond: 10 µM unless noted
The panel holds about 83,000 compounds, 20% with a hit somewhere; the sample as a whole holds those more often. The source made the active and inactive calls. How the source made its calls: active means growth percent below 10; inactive means the rest.
Respond with a class label; see active, inactive

Sample answers from the record:
- compound: "CCCn1ccnc1C(O)c1ccc(OCc2ccccc2)c(OC)c1 (stereo not drawn)"
  target: "NCI-H522 lung"
  category.label: "inactive"
- compound: "CC1(C)CC[C@]23CC[C@]4(C)[C@H](CC[C@@H]5[C@@]6(C)C/C(=C/c7ccncc7)C(=O)C(C)(C)[C@@H]6CC[C@]54C)[C@H]2[C@H]1OC3=O"
  target: "NCI-H522 lung"
  category.label: "inactive"

# input Fill in: this test's call for `COc1cc(/C=C/C(=O)/C=C/c2ccc(-n3ccnc3C)cc2)ccc1O` is ___
# output inactive

# input Fill in: this test's call for `C[C@H]1[C@H](C)CC[C@]2(C(=O)N3CCN(C)CC3)CC[C@]3(C)C(=CC[C@@H]4[C@@]5(C)C/C(=C/c6ccco6)C(=O)C(C)(C)[C@@H]5CC[C@]43C)[C@H]12` is ___
# output active

# input Fill in: this test's call for COc1ccc(C2NC(=O)C(C#N)c3c2sc2c(F)cccc32)cc1 (stereo not drawn) is ___
# output inactive

# input Fill in: this test's call for `O=C(O)c1cc([N+](=O)[O-])ccc1Br` is ___
# output inactive

# input Fill in: this test's call for `Cc1ccc(-n2nc3n(/c2=N\C(=O)NS(=O)(=O)c2ccc(C)cc2)CCN3C2=NCCN2)cc1` is ___
# output inactive

# input Fill in: this test's call for `O=c1cc(-c2ccccc2)oc2cc(OCc3cn(Cc4ccc(F)cc4)nn3)cc(O)c12` is ___
# output inactive

# input Fill in: this test's call for `C[C@H]1[C@H](C)CC[C@]2(C(=O)O)CC[C@]3(C)C(=CC[C@@H]4[C@@]5(C)C/C(=C/c6cccnc6)[C@H](O)C(C)(C)[C@@H]5CC[C@]43C)[C@H]12` is ___
# output active

# input Fill in: this test's call for `Nc1cccc2c1C(=O)c1cccc(NC(=O)c3ccccc3)c1C2=O` is ___
# output active

# input Fill in: this test's call for `CCOc1ccc(/C=C(\C#N)c2cc3ccccc3[nH]2)cc1` is ___
# output inactive

# input Fill in: this test's call for `CSc1nc2c(c(=O)n1C)C1(C(=O)N(Cc3ccccc3)c3ccccc31)c1c(nc(SC)n(C)c1=O)N2` is ___
# output inactive

# input Fill in: this test's call for `CN(C)CCCNc1nc(-c2cccc(C(Cl)(Cl)Cl)c2)nc(C(Cl)(Cl)Cl)n1` is ___
# output inactive

# input Fill in: this test's call for `COC(=O)c1cc2c(=O)[nH]cc3c2c(n1)CCC3` is ___
# output inactive
